Measured values drawn from patent US20180127503A1 for this set.

binders and their reported binding intensity
system-tested: T1, human ROR2 expressed on the cell surface (human, UniProt Q01974 34-943)
T1 construct: Endogenous ROR2 of human tumour cell lines; also called cell surface ROR2; ROR2 on tumour cell lines
T1 sequence (Q01974 34-943 limits assumed): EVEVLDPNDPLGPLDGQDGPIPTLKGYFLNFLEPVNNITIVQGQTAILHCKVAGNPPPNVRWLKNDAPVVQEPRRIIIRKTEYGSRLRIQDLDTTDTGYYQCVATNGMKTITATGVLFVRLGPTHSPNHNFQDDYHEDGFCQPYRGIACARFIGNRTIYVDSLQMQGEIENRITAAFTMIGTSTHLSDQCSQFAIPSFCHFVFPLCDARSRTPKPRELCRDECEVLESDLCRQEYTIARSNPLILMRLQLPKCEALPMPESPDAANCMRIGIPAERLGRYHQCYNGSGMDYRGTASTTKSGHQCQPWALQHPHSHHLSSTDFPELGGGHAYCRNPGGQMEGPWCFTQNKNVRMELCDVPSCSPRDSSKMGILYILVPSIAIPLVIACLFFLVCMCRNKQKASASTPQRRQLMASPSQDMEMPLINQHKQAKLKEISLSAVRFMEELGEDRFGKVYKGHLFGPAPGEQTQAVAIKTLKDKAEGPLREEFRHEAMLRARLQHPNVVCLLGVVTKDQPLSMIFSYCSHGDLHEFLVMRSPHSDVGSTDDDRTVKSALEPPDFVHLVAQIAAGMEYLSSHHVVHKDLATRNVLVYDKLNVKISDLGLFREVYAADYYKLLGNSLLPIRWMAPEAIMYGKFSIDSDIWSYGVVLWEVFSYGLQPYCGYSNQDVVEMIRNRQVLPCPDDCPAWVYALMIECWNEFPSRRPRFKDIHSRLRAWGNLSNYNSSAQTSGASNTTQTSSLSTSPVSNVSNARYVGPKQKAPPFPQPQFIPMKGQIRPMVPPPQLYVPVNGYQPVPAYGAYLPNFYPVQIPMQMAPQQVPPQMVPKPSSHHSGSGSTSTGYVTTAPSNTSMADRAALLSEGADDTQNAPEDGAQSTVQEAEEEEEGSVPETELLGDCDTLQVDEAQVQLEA
assay-remarks: flow cytometry, OUMS 27 cells (chondrosarcoma)
Set-up: unit not given here
// response body must contain only the number

Look up binding intensity of ROR2-23 full length human IgG1 antibody (antibody, V domains shown, The light chain of clone 023 is labelled kappa; also called clone #23; clone #023 IgG1) VH: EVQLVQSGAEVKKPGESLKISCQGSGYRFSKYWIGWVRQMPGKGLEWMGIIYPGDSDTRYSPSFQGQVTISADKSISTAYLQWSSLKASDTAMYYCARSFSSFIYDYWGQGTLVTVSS VL: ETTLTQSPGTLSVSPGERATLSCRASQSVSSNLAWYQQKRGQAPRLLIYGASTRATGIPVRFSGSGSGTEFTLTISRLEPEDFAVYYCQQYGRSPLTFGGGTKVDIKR and report it. 71

Look up binding intensity of ROR2-241 full length human IgG1 antibody (antibody, V domains shown) VH: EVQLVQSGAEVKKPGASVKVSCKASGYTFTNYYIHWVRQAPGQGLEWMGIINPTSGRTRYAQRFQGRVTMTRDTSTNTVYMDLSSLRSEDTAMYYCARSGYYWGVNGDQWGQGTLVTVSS VL: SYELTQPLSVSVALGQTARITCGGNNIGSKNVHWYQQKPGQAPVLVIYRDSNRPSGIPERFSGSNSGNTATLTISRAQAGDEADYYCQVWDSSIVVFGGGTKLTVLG and report it. 53

Look up binding intensity of ROR2-27 full length human IgG1 antibody (antibody, V domains shown, also called clone #27; clone #027 IgG1) VH: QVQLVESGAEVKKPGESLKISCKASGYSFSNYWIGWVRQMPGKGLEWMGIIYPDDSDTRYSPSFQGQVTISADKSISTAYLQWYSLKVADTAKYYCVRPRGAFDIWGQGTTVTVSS VL: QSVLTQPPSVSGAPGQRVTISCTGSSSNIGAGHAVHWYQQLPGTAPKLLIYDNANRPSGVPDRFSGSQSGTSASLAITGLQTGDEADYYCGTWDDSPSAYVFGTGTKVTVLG and report it. 48

---
Look up binding intensity of ROR2-240 full length human IgG1 antibody (antibody, V domains shown, also called clone #240 IgG1) VH: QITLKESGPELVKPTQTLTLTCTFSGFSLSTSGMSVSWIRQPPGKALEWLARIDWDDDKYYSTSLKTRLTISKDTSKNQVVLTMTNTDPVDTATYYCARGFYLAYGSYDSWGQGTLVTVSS VL: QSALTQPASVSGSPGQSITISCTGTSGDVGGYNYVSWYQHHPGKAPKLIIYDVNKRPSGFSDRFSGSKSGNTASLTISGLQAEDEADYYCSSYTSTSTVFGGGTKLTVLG and report it. 6

Look up binding intensity of ROR2-90 full length human IgG1 antibody (antibody, V domains shown, also called clone #90; antibody #90) VH: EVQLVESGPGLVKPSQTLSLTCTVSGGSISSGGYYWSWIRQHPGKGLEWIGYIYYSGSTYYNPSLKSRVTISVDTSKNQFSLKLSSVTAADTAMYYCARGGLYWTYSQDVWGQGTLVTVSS VL: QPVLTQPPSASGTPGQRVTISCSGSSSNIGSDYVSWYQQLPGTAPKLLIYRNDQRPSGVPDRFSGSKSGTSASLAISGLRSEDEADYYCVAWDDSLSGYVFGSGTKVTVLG and report it. 78
